- ASSAYED TARGET: A*24:02, P16209
- STUDY CONDITIONS: modification not given
VALUE TYPE: IC50 (nM)
Field format: number, assumed nM, no unit text.

Record summary for SYTMCSGKF […, serotype 4] : reported IC50 = 222
